Hey, just so you know, these numbers are from ChEMBL document CHEMBL1137293.

In what follows, each item is paired with its IC50 for Beta-secretase 1 (Homo sapiens).
Endpoint Name: IC50 (nM)

- C[C@@H](NC(=O)c1cc(COC(=O)[C@](C)(N)Cc2ccccc2)cc(N(C)S(C)(=O)=O)c1)c1ccc(F)cc1: 27
- C[C@@H](NC(=O)c1cc(C(=O)NC(CO)(CO)Cc2ccccc2)cc(N(C)S(C)(=O)=O)c1)c1ccc(F)cc1: 2700
- C[C@@H](NC(=O)c1cc(C2=NC(CO)(Cc3ccccc3)CO2)cc(N(C)S(C)(=O)=O)c1)c1ccc(F)cc1 (some centres undefined): 12500
- C[C@@H](NC(=O)c1cc(COC[C@@](N)(CO)Cc2ccccc2)cc(N(C)S(C)(=O)=O)c1)c1ccc(F)cc1: 1370
